Molecular target: human JAK1 (Homo sapiens, UniProt P23458)
Construct: catalytic domain, amino acids 866-1154; catalog number PV4774
Sequence (P23458 866-1154): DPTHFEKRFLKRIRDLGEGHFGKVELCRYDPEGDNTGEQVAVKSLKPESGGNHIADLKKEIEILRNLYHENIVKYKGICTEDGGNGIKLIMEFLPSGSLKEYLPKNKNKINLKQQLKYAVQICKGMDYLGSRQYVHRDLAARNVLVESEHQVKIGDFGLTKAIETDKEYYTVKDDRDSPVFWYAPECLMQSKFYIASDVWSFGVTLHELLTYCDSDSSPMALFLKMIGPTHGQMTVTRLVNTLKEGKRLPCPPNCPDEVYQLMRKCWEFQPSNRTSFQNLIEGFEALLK
Assay: JAK1 inhibition assay (polyGT substrate / Ulight-JAK1 peptide)
Settings: recombinant human JAK1 catalytic domain; polyGT or Ulight-JAK1 peptide assay
METRIC: IC50

Answered cases to consult:
[[record]]
mol = "CCc1cc(-c2cnn(Cc3ccc(C)cc3)c2)ccc1N(C)c1cc2c(cn1)ncn2C"
measured_result = "0.01 to 100 nM"

[[record]]
mol = "CCc1cc(C(=O)O)ccc1N(C)c1cc2c(cn1)ncn2C"
measured_result = "> 1000 nM"


Report IC50 for `Cc1ccc(OCC(C)C)cc1N(C)c1cc2c(cn1)ncn2C` 101 to 500 nM

Identify the reported IC50 for the following entry. `CCc1cc(C2CCN(S(C)(=O)=O)CC2)ncc1N(C)c1cc2c(cn1)ncn2C` 0.01 to 100 nM

Consider the molecule `CCN(c1ccc2ocnc2c1)c1cc2c(cn1)ncn2C` and give its recorded IC50. > 1000 nM

* * *

Target: human JAK3 (Homo sapiens)
Construct: catalytic domain (amino acids 781-1124; catalog number PV3855)
Experiment: JAK3 inhibition assay
Details: recombinant human JAK3 catalytic domain; polyGT substrate
pIC50: −log10 of the molar value.
Entries and their pIC50 values follow.

As a guide, the following entries are already answered.
[[record]]
compound = "COc1cc(S(=O)(=O)N2CCOCC2)ccc1N(C)c1cc2c(cn1)ncn2C [Compound 315]"
target_system = "human JAK3 (Homo sapiens)"
measured_result = "< 6.00"

[[record]]
compound = "CCc1cc(C2CCCC2)ncc1N(C)c1cc2c(cn1)ncn2C [Compound 433]"
target_system = "human JAK3 (Homo sapiens)"
measured_result = "6.30 to 7.00"

[[record]]
compound = "CN(c1cc2c(cn1)ncn2C)c1ccc(C2CN(S(C)(=O)=O)C2)cc1F [Compound 277]"
target_system = "human JAK3 (Homo sapiens)"
measured_result = "6.30 to 7.00"

[[record]]
compound = "CCc1cc(CNC(=O)C2CCC(F)(F)CC2)ccc1N(C)c1cc2c(cn1)ncn2C [Compound 377]"
target_system = "human JAK3 (Homo sapiens)"
measured_result = "< 6.00"

[[record]]
compound = "CCc1cc(CN2CCC(S(C)(=O)=O)C2)ccc1N(C)c1cc2c(cn1)ncn2C (centres unmarked) [Compound 420]"
target_system = "human JAK3 (Homo sapiens)"
measured_result = "< 6.00"


Look up and state reported pIC50 for CCc1cc(CN(CC#N)S(C)(=O)=O)ccc1N(C)c1cc2c(cn1)ncn2C [Compound 388] 7.00 to 11.00

Note down pIC50 recorded for CN(c1ccc(/C=C/C#N)cc1)c1cc2c(cn1)ncn2C [Compound 345] < 6.00

Please supply the value of reported pIC50 for the item CCc1cc(C2(C#N)CN(S(C)(=O)=O)C2)ncc1N(C)c1cc2c(cn1)ncn2C [Compound 458] 6.00 to 6.30

Using known records, supply pIC50 for CCc1cc(CNS(=O)(=O)C(F)F)cc(F)c1N(C)c1cc2c(cn1)ncn2C [Compound 324] 7.00 to 11.00

Note pIC50 for the compound shown: CN(c1cc2c(cn1)ncn2C)c1ccc(C#N)cc1OC(F)F [Compound 428] < 6.00

Let me know recorded pIC50 for CCc1cc(C2CCN(C(=O)CC#N)CC2)ccc1N(C)c1cc2c(cn1)ncn2C [Compound 224] , thanks. 6.30 to 7.00

Supply recorded pIC50 for CCc1cc(CNS(=O)(=O)CC)ccc1N(C)c1cc2c(cn1)ncn2C [Compound 253] here. 7.00 to 11.00

Using known records, supply pIC50 for CCc1cc(C(=O)OC)ccc1N(C)c1cc2c(cn1)ncn2C [Compound 80] < 6.00

Give me measured pIC50, please, for this compound: CCc1cc(C(=O)NC)ccc1N(C)c1cc2c(cn1)ncn2C [Compound 85] < 6.00

Could you please provide reported pIC50 for CCc1cc(C(C#N)N2CCC(S(C)(=O)=O)CC2)ccc1N(C)c1cc2c(cn1)ncn2C (centres unmarked) [Compound 452] ? Thanks! 7.00 to 11.00

Answer with reported pIC50 of CCc1cc(C2CN(CC#N)C2)ccc1N(C)c1cc2c(cn1)ncn2C [Compound 351] 6.30 to 7.00

Note down pIC50 recorded for CCc1cc(-c2cnn(Cc3ccc(F)cc3)c2)ccc1N(C)c1cc2c(cn1)ncn2C [Compound 238] 6.30 to 7.00

Provide pIC50 value for the following compound: CCc1cc(C(=O)NC2(C#N)CCN(C)CC2)ccc1N(C)c1cc2c(cn1)ncn2C [Compound 166] < 6.00

Specify reported pIC50 for the compound shown: CCc1ccccc1N(CC)c1cc2c(cn1)ncn2C [Compound 34] 6.00 to 6.30

Please give measured pIC50 of the following entry: CCc1cc(N2CC[C@H](F)C2)ncc1N(C)c1cc2c(cn1)ncn2C [Compound 415] 7.00 to 11.00

Return reported pIC50. Input compound: COC(=O)c1ccc(N(C)c2cc3c(cn2)ncn3C)c(C)c1 [Compound 27] < 6.00

Given CCNC(=O)c1ccc(N(C)c2cc3c(cn2)ncn3C)c(CC)c1 [Compound 102] , respond with its pIC50. < 6.00

Given CN(c1cc2c(cn1)ncn2C)c1ccc(C#N)cc1F [Compound 267] , respond with its pIC50. < 6.00

Using the record for CCc1cc(-c2cnc(NC(C)=O)nc2)ccc1N(C)c1cc2c(cn1)ncn2C [Compound 115] , state its measured pIC50. < 6.00

In one line, give reported pIC50 of the entry CCc1cc(-c2cncc(F)c2)ccc1N(C)c1cc2c(cn1)ncn2C [Compound 133] . 6.00 to 6.30

Respond only with pIC50 recorded for CCc1cc(C(=O)NCc2ccccc2)ccc1N(C)c1cc2c(cn1)ncn2C [Compound 98] 6.00 to 6.30

Identify measured pIC50 corresponding to CCc1cc(CNC(=O)CC#N)ccc1N(C)c1cc2c(cn1)ncn2C [Compound 255] 6.30 to 7.00

Look up and state reported pIC50 for CN(c1cc2c(cn1)ncn2C)c1ccc(CN(C)S(C)(=O)=O)cc1OC(F)F [Compound 430] 7.00 to 11.00

* * *

Target: human JAK3 (Homo sapiens, UniProt P52333)
Construct: catalytic domain (amino acids 781-1124; catalog number PV3855); purchased Invitrogen PV3855
Sequence (P52333 781-1124): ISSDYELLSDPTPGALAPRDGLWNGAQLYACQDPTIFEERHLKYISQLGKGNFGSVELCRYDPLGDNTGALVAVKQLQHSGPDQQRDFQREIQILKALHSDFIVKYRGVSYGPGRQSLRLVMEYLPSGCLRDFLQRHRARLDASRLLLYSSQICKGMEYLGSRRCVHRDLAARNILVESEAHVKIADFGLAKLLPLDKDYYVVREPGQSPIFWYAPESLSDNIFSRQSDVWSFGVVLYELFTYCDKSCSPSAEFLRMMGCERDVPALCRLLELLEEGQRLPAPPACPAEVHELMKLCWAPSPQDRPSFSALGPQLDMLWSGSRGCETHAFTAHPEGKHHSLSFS
Experiment: JAK3 inhibition assay
Type: biochemical
Conditions: recombinant human JAK3 catalytic domain; polyGT substrate
Listing of recorded IC50 by entry.

Observe how each entry below is paired with its result.
[[record]]
compound = "CCC(=O)N1CC=C(c2ccc(N(C)c3cc4c(cn3)ncn4C)c(CC)c2)CC1 [Compound 158]"
measured_result = "101 to 500 nM"

[[record]]
compound = "CCc1cc(N2CC(C(=O)OC)C2)ncc1N(C)c1cc2c(cn1)ncn2C [Compound 399]"
measured_result = "> 1000 nM"

[[record]]
compound = "Cc1cc(O)ccc1N(C)c1cc2c(cn1)ncn2C [Compound 38]"
measured_result = "501 to 1000 nM"

[[record]]
compound = "CCc1cc(C2=CCN(C(=O)[C@H](C)O)CC2)ccc1N(C)c1cc2c(cn1)ncn2C [Compound 251]"
measured_result = "101 to 500 nM"

[[record]]
compound = "CN(c1cc2c(cn1)ncn2C)c1ccc(CN(CC2CC2)S(C)(=O)=O)cc1F [Compound 360]"
measured_result = "> 1000 nM"


Supply reported IC50 belonging to this compound: CCc1cc(-c2cnn(CC(N)=O)c2)ccc1N(C)c1cc2c(cn1)ncn2C [Compound 222] 101 to 500 nM

Look up and state reported IC50 for CCc1cc(CNS(=O)(=O)N2CC(F)(F)C2)ccc1N(C)c1cc2c(cn1)ncn2C [Compound 424] 101 to 500 nM

Tell me measured IC50 for CCc1cc(C2CCN(C(=O)C(C)O)CC2)ccc1N(C)c1cc2c(cn1)ncn2C (stereo not drawn) [Compound 235] please. 101 to 500 nM

Indicate its recorded IC50; the compound in question is CCc1ccccc1N(C)c1cc2c(cn1)ncn2C(F)F [Compound 431] 101 to 500 nM

Tell me IC50 reported for CCc1cc(C(C#N)N2CCNC(=O)C2)ccc1N(C)c1cc2c(cn1)ncn2C (stereo not drawn) [Compound 410] 0.01 to 100 nM

Return reported IC50. Input compound: CN(c1cc2c(cn1)ncn2C)c1ccc(CNS(C)(=O)=O)cc1OC(F)F [Compound 429] 0.01 to 100 nM

Specify reported IC50 for the compound shown: Cc1ccc(OCc2ccc(Cl)cc2)cc1N(C)c1cc2c(cn1)ncn2C [Compound 62] > 1000 nM

Please look at this compound and report its IC50: CN(c1cc2c(cn1)ncn2C)c1ccc(CN(CC#N)S(C)(=O)=O)cc1F [Compound 355] 101 to 500 nM

Return IC50 for the following compound: CN(c1cc2c(cn1)ncn2C)c1c(F)cc(C2CN(S(C)(=O)=O)C2)cc1F [Compound 409] 501 to 1000 nM

Name the recorded IC50 of the compound listed here: CCc1ncncc1N(C)c1cc2c(cn1)ncn2C [Compound 456] > 1000 nM

Identify the reported IC50 for the following entry. CCc1cc(C(C#N)N2CCC(C(N)=O)CC2)ccc1N(C)c1cc2c(cn1)ncn2C (stereo not drawn) [Compound 451] 101 to 500 nM

Provide one value: measured IC50 of CCc1cc(CNCC(F)F)ccc1N(C)c1cc2c(cn1)ncn2C [Compound 379] 101 to 500 nM

Give IC50 for the following compound: CCc1cc(CNC(=O)C(F)F)ccc1N(C)c1cc2c(cn1)ncn2C [Compound 256] 0.01 to 100 nM

Data provenance: patent US20130217664A1
